Test system: Saccharomyces cerevisiae
Experiment: protein stability index of tFT-peptide fusion (C-terminal peptide) (PSI (0-1 scale)); higher = more stable (slower turnover)
Conditions: genetic background: wild type; temperature: 30 C
Classify by measured protein stability index: y if it is equal to or exceeds 0.7, n if it is smaller.

Previously resolved entries follow.
Check if protein stability index >= 0.7 (inclusive). Item: HATPPAPHSVSS
y

Could you verify whether the entry LFVGLVSFRIGA shows protein stability index of no less than 0.7?
n

Here's the next entry for you.
Determine whether measured protein stability index meets or exceeds 0.7 for PTPVAHSLSLRI
n

----------
Overview of reported protein stability index across a group of sequences:
Test system: Saccharomyces cerevisiae
Test: protein stability index of tFT-peptide fusion in deletion strain of DAS1 (PSI (0-1 scale)); higher = more stable (slower turnover)

Query the reported protein stability index for Saccharomyces cerevisiae; item: PDKMNHLIKLLN
0.614

So what protein stability index did FAMRWTFRYWVN get with Saccharomyces cerevisiae?
0.476

Others:
Write down the reported protein stability index of VRGAVGGERLVG , test system: Saccharomyces cerevisiae.
0.698

Report protein stability index for WRGAVGGWRLVG tested on Saccharomyces cerevisiae.
0.655

----------
Test system: Saccharomyces cerevisiae
Test: protein stability index of tFT-peptide fusion (C-terminal peptide) (PSI (0-1 scale)); higher = more stable (slower turnover)
Conditions: genetic background: wild type; temperature: 30 C
Examples of sequences with documented protein stability index follow.
Lab note: record the figure alone, no unit after it.

Quick one: protein stability index of VWGRQGGGVGRA ?
0.715

Field request: protein stability index | item: GGSLPAHPRNPL
0.701

Given the entry WFGSGGRGWREF , report its measured protein stability index.
0.713

Continuing:
Look up protein stability index: CRGRGFVVGGRR
0.687

Which protein stability index reading was recorded for the sequence NDGIKYQSEKRR ?
0.7

GET /values?readout=protein stability index&item= SRAARLLPKLLI
0.589

----------
Tested on: Saccharomyces cerevisiae
Test: protein stability index of tFT-peptide fusion (C-terminal peptide) (PSI (0-1 scale)); higher = more stable (slower turnover)
Conditions: genetic background: wild type; temperature: 30 C
assay_metric: protein stability index
The reply should be a number, written without any unit.

A selection of reference data follows.
Consider the sequence GFCSGGVFVEWV and give its measured protein stability index.
0.754

Requested field: protein stability index. Item: VWVGGVSVGFFG
0.716

Proceed to the following item.
Quick check: protein stability index of PYCVTLTLPFSS ?
0.713

----------
System: Saccharomyces cerevisiae
Experiment: protein stability index of tFT-peptide fusion (C-terminal peptide) (PSI (0-1 scale)); higher = more stable (slower turnover)
Conditions: genetic background: wild type; temperature: 30 C
assay_metric: protein stability index
API doc: respond with a numeric literal and nothing else, no unit.

Solved cases below.
Give its protein stability index value. Item: LMVENFRKEYII [PTI1 C-terminal 12 aa]
0.547

Which value of protein stability index has been reported for KLESSKNTSHEK [NFU1 C-terminal 12 aa] in the records?
0.705

Entry SYRVMQPNEFES [YGL214W C-terminal 12 aa] : reported protein stability index = ?
0.711

Continuing:
Any idea what its protein stability index is? The sequence is ATYLNKSDNQVQ [YLR446W C-terminal 12 aa]
0.656

Recorded protein stability index for LKFLEEKFPHDK [AIM17 C-terminal 12 aa] , please?
0.691

For FGLFKKKNKSKK [SVL3 C-terminal 12 aa] , what is its reported protein stability index?
0.726

# get_value(readout='protein stability index', item= QFDSENVILSVI [TRS120 C-terminal 12 aa] )
0.687

Record request: protein stability index value, item GIYSAVIDQTGF [RRP9 C-terminal 12 aa]
0.687

----------
System: Saccharomyces cerevisiae
Experiment: protein stability index of tFT-peptide fusion (C-terminal peptide) (PSI (0-1 scale)); higher = more stable (slower turnover)
Conditions: genetic background: cdc53-1; temperature: 37 C
protein stability index values by entry
Lab note: record just the number, no unit beside it.

Completed entries (count: 3):
Give its protein stability index value. Item: SNFQLLPLFKNI
0.789

So what does the record say about protein stability index for SLVLLVASVTGS ?
0.546

Record request: protein stability index value, item LPCPPSPASLPR
0.715

---
Item under review: FSFSAFARFLVI . Reported protein stability index?
0.704

// query protein stability index value for entry VILYCSNVAVCS
0.42

----------
System: Saccharomyces cerevisiae
Assay: protein stability index of tFT-peptide fusion (C-terminal peptide) (PSI (0-1 scale)); higher = more stable (slower turnover)
Conditions: genetic background: wild type; temperature: 30 C
This section presents sequences with their documented protein stability index values.
// return a plain number; no unit text

Could you tell me which protein stability index is on file for CMLGVVRVLVWF ?
0.105

For LLVLRQYFFFFV , what is its reported protein stability index?
0.224

Which value of protein stability index has been reported for AITHVILLVTPL in the records?
0.417

Others:
What value of measured protein stability index is listed for CLLWVVWSLLWV ?
0.257

Consider the sequence VAWFFFAYAFFM and give its measured protein stability index.
0.266

----------
Test system: Saccharomyces cerevisiae
Test: protein stability index of tFT-peptide fusion (C-terminal peptide) (PSI (0-1 scale)); higher = more stable (slower turnover)
Conditions: genetic background: wild type; temperature: 37 C
// protein stability index lookup, one value per entry
Lab note: write the figure by itself, no unit.

Study these solved cases before continuing.
What measured protein stability index goes with CYVFLCGSFVFV ?
0.515

Bench note: what protein stability index did GRWAFFTWLRWS show?
0.269

GET /values?readout=protein stability index&item= SQVILFFLSLCR
0.61

Reported protein stability index for FILCGFSVVLIG : what is it?
0.372

If you can, please state the reported protein stability index value of LLLRWWLYSCCP .
0.478

Further cases:
Returns the measured protein stability index for the input sequence. Input: FVFIFIRVFFFR
0.245

Entry VRLLLIFRLLVI has what protein stability index?
0.447

What measured protein stability index goes with ALMTFTLVFTYM ?
0.278

Any idea what protein stability index was measured for LGWFVDFVFVVW ?
0.454

I'd like to know its protein stability index. The sequence in question is AAFLGVLCWCWG
0.47

----------
Tested on: Saccharomyces cerevisiae
Test: protein stability index of tFT-peptide fusion (C-terminal peptide) (PSI (0-1 scale)); higher = more stable (slower turnover)
Conditions: genetic background: doa10 deletion; temperature: 30 C
# protein stability index values compiled below
Form field (numeric): enter value without unit.

Some sequences with recorded protein stability index:
Entry VCALHSAPLLIF : reported protein stability index = ?
0.307

Which value of protein stability index has been reported for WGAHRVRVSRIL in the records?
0.295

I'd like to know its protein stability index. The sequence in question is RFFKMREAIRIS
0.205

From here, focus on the item given below.
Form field: reported protein stability index of WLCVFVFGIFFV
0.292

----------
Tested on: Saccharomyces cerevisiae
Assay: protein stability index of tFT-peptide fusion (C-terminal peptide) (PSI (0-1 scale)); higher = more stable (slower turnover)
Details: genetic background: cdc53-1; temperature: 37 C
Listed here: items and their measured protein stability index.
Lab note: record the figure alone, no unit after it.

The following sequences have reported results that may help.
What does the data say about its protein stability index? Entry: RWAAAVPLLVVG
0.0234

Fill in the blank: the reported protein stability index of VLVVVAFVALPR is ____.
0.41

Consider the sequence shown here: VFLRCRSLSMRV What is its recorded protein stability index?
0.519

So what's the measured protein stability index for this one? VFSCFLFLVVLV
0.104

Name the reported protein stability index value associated with the sequence LFLTSFRFLRLF
0.481

More entries:
Any idea what protein stability index was measured for EGLCCGAYFLVF ?
0.723

Look up protein stability index for this sequence: LAGVVWVVWCVG
0.21

Can you share its protein stability index? I mean this sequence: VCRGWCVVRYIL
0.699

----------
Measured protein stability index, listed per entry for reference.
Test system: Saccharomyces cerevisiae
Test: protein stability index of tFT-peptide fusion (C-terminal peptide) (PSI (0-1 scale)); higher = more stable (slower turnover)
Settings: genetic background: das1 deletion; temperature: 37 C
Answer field: number only, no words.

// solved cases for protein stability index follow
Quick check: protein stability index of FPPRLIPLLARS ?
0.511

What value of protein stability index has been recorded for this entry: FLACYSSFLFVS
0.587

Entry VMWFVLVGLCIL : reported protein stability index = ?
0.506

GET /values?readout=protein stability index&item= ALPLRSNILSVF
0.506

With those in mind, consider the next sequence.
Look up protein stability index for this sequence: ICIFWLITGLWL
0.487

----------
Test system: Saccharomyces cerevisiae
Experiment: protein stability index of tFT-peptide fusion (C-terminal peptide) (PSI (0-1 scale)); higher = more stable (slower turnover)
Settings: genetic background: wild type; temperature: 30 C
assay_metric: protein stability index
Format: numeric value only, no unit, no commentary.

# example entries with known answers
Item GGSGLRCCREMG has what recorded protein stability index?
0.681

GET /values?readout=protein stability index&item= NGMKDKTKIAKI
0.701

Sample LPPHSAPLAHGP — what was its protein stability index?
0.714

Here is the next item to consider.
Query (sequence): PRPPHPPPSSPR ; field requested: protein stability index
0.69
